- assay.target: T1, cynomolgus monkey PD-L1 on CHO-K1 cells overexpressing cynomolgus monkey PD-L1 (cynomolgus monkey, UniProt G7PSE7 19-290)
- T1 construct: also called CHO-K1/cynoPD-L1; GenScript M00573
- T1 sequence (G7PSE7 entry or part of it limits assumed): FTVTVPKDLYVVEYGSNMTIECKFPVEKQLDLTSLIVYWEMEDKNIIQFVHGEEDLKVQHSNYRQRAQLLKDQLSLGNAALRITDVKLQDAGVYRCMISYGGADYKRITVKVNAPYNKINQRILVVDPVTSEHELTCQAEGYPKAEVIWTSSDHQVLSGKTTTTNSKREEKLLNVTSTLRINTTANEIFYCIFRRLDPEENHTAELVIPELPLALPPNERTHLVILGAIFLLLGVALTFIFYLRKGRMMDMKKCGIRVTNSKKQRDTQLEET
- experiment.notes: flow cytometry on CHO-K1 cells overexpressing cynomolgus monkey PD-L1 (CHO-K1/cynoPD-L1)
readout.kind: Maximum MFI (MFI)

binder	observed.measurement
PR001061 (antibody, human IgG1, V domains shown, Heavy-chain-only antibody (HCAb): human VH fused to human IgG1 Fc; no light chain; also called anti-PD-L1 HCAb antibody) VH: EVQLLESGGGVVQPGRSLRLSCAASGFNFSSYGMYWVRQAPGKGQEWVAIIWYDGSRKHYADSVKGRFTISRDNSKNTLYLEMNSLRAEDTAMYYCAKNRAIFGVVPDASDIRGQGTMVTVSS	8840
PR000960 (antibody, human IgG1, V domains shown, Heavy-chain-only antibody (HCAb): human VH fused to human IgG1 Fc; no light chain; also called anti-PD-L1 HCAb antibody) VH: QVQLVESGGGVVQPGMSLRLSCAASGFNFSNYGMYWVRQAPGKGQEWVAIIWYDGTKKHYADSVKGRFTISRDNSKNTLYLEMNSLRVEDTAVYYCAKNRAIFGVVPDASDIRGQGTMVTVSS	8440
PR001065 (antibody, human IgG1, V domains shown, Heavy-chain-only antibody (HCAb): human VH fused to human IgG1 Fc; no light chain; also called anti-PD-L1 HCAb antibody) VH: EVQLVESGGGVVQPGRSLRLSCAASGFNFSSYGMYWVRQAPGKGQEWVAIIWYDGTKKHYADSVKGRFTISRDNSKNTLYLEMNSLRVEDTAVYYCAKNRAIFGVVPDASDIRGQGTMVTVSS	8780
PR001058 (antibody, human IgG1, V domains shown, Heavy-chain-only antibody (HCAb): human VH fused to human IgG1 Fc; no light chain; also called anti-PD-L1 HCAb antibody) VH: EVQLVESGGGVVQPGRSLRLSCAASGFTFSSYGMYWVRQAPGKGQEWVAIIWYDGTKKHYADSVKGRFTISRDNSKNTLYLEMNSLRVEDTAVYYCAKNRAIFGVVPDASDIRGQGTMVTVSS	8480
